methodSummary: Particle size and PDI of lipid nanoparticles by dynamic light scattering
Assay type: physicochemical
measurementParameters: lipid nanoparticles with luciferase mRNA; ionizable lipid/cholesterol/DSPC/DMG-PEG2000 50/38.5/10/1.5 mol%
reportedProperty: Particle-size distribution (PDI)
Answers are plain numbers.

Some solved cases for reference:
| molecule | Particle-size distribution (PDI) |
| --- | --- |
| CCCCCCCCCCC(=O)OCCC(C)(C)CCCCN(CCO)CCCCCCCC(=O)OC(CCCCCCCCC)CCCCCCCCC [54b] | 0.17 |
| CCCCCCCCCCOC(=O)CCCCCCCN(CCO)CCCCCC(C)(C)COC(=O)CCC(CCCCCC)CCCCCC [20b] | 0.032 |
| CCCCCCCCCCOC(=O)CCC(C)(C)CCCCN(CCCCO)CCCCCCCC(=O)OC(CCCCCCCCC)CCCCCCCCC [29a] | 0.012 |
| CCCCCCCCCOC(=O)CCCCC(C)(C)CCN(CCCCCCCC(=O)OCC(CCCCCCC)CCCCCCC)C(=O)SCCCN(C)C [61a] | 0.09 |
| CCCCCCCCCC(=O)OCC(C)(C)CCCCCN(CCCCCCOC(=O)OCC(CCCCCCC)CCCCCCC)C(=O)SCCCN(C)C [47b] | 0.07 |

Take each entry in turn and give its Particle-size distribution (PDI).
1. CCCCCCCCCOC(=O)CCCCCCCN(CCO)CCCCCC(C)(C)CC(=O)OC(CCCCCCCC)CCCCCCCC
2. CCCCCCCCCCOC(=O)CCCCCN(CCO)CCCCCCC(C)(C)C(=O)OC(CCCCCCC)CCCCCCC [23a]
3. CCCCCCCCCC(=O)OCCCC(C)(C)CCCN(CCO)CCCCCCCC(=O)OCC(CCCCCCC)CCCCCCC [57b]
4. CCCCCCCCCCC(=O)OCC(C)(C)CCCCCN(CCCCO)CCCCCCCCC(=O)OCC(CCCCCCC)CCCCCCC [89b]
5. CCCCCC/C=C\COC(=O)CCCCCCCN(CCO)CCCCCCC(C)(C)C(=O)OC(CCCCCCCC)CCCCCCCC [57a]
6. CCCCCCCCCCCOC(=O)OCCCCCN(CCO)CCCCCC(C)(C)COC(=O)CC(CCCCCCC)CCCCCCC [28b]

RESULT:
0.031
0.011
0.18
0.08
0.17
0.16

Quick batch: Particle-size distribution (PDI) for everything below.
1. CCCCCCCCCC(=O)OCCCCCCCN(CCO)CCCCC(C)(C)COC(=O)OCC(CCCCCCC)CCCCCCC [25b]
2. CCCCCCCCCC(=O)OCCCC(C)(C)CCCN(CCCCO)CCCCCCCCC(=O)OCC(CCCCCC)CCCCCC [113b]
3. CCCCCCCCCC(=O)OCCC(C)(C)CCCCCN(CCO)CCCCCCCCC(=O)OCC(CCCCCCC)CCCCCCC [107b]
4. CCCCCCCCCCCOC(=O)CCCCCN(CCCO)CCCCCCC(C)(C)C(=O)OC(CCCCCCCC)CCCCCCCC [11a]
5. CCCCCCCCCC(=O)OCC(C)(C)CCCCCN(CCCCO)CCCCCCC(=O)OCC(CCCCCCCC)CCCCCCCC [69b]
6. CCCCCCCCCOC(=O)CCC(C)(C)CCCCN(CCO)CCCCCCOC(=O)OCC(CCCCCCC)CCCCCCC [46a]
7. CCCCCCCCC(CCCCCCCC)OC(=O)C(C)(C)CCCCCCN(CCO)CCCCCCCOC(=O)CCCC(CCCCC)CCCCC
8. CCCCCCCCCCCCOC(=O)CCCCCN(CCO)CCCCCCC(C)(C)C(=O)OC(CCCCCCCCC)CCCCCCCCC [24a]

RESULT:
1: 0.15; 2: 0.09; 3: 0.16; 4: 0.021; 5: 0.13; 6: 0.16; 7: 0.030; 8: 0.052

For each entry beneath this line, provide reported Particle-size distribution (PDI).
1. CCCCCCCCCOC(=O)OCCCCCCCN(CCO)CCCCCC(C)(C)COC(=O)CC(CCCCCCC)CCCCCCC [29b]
2. CCCCCCCCCCC(=O)OCCC(C)(C)CCCCN(CCCCO)CCCCCCCC(=O)OCC(CCCCCCCC)CCCCCCCC [101b]
3. CCCCC/C=C\C/C=C\CCCCCCCCC(CCCCCCCC/C=C\C/C=C\CCCCC)OC(=O)CCCN(C)C [MC3, DLin-MC3-DMA, reference compound]

RESULT:
[0.10, 0.10, 0.04]
